Items are presented alongside their recorded 19F T2-CPMG Score.
Target: HRas^G12V (Homo sapiens (Human), UniProt P01112, G12V)
Sequence (P01112 1-166 G12V): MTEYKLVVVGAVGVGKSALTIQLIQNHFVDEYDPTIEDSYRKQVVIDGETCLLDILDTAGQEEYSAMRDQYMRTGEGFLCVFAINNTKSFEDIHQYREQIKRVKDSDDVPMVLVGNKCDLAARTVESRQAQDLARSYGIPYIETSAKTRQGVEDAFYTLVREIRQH
Assay: 19F T2-CPMG NMR score
Format: binding
Number, no unit, nothing else.

These recorded examples may help you get a feel for the data.
COC1CN(C(=O)Cc2c[nH]c3cc(F)ccc23)C1 [Compound 10081]: 15.91
CN1CCN(CCNC(=O)Cc2c[nH]c3cc(F)ccc23)CC1 [Compound 10020]: 14.34
CN(C)Cc1[nH]c2cc(F)ccc2c1C(CC(=O)O)c1ccccc1F (centres unmarked) [Compound 11066]: −0.25

Q. What value of measured 19F T2-CPMG Score is listed for CN1CCN(C(=O)Cc2c[nH]c3cc(F)ccc23)CC1 [Compound 10065] ?
A. 22.6

Q. What value of measured 19F T2-CPMG Score is listed for CCOC(=O)[C@H]1CN(C(=O)Cc2c[nH]c3cc(F)ccc23)CCO1 [Compound 10169] ?
A. 7.14

###

Target: HRas^G12V (Homo sapiens (Human), UniProt P01112, G12V)
Test: 19F DLB (ligand-observed 19F NMR) score
Format: binding
Set-up: scale not given here
Items are presented alongside their recorded 19F DLB Score.
Number, no unit, nothing else.

O=C(C1CCC(O)CC1)N1CCC(c2c[nH]c3cc(F)ccc23)C1 (stereo not drawn): 2.2

Q. What value of measured 19F DLB Score is listed for CN(C)Cc1c[nH]c2ccc(F)cc12 [FS-1254, reference compound] ?
A. 1.15

Q. What value of measured 19F DLB Score is listed for CC1CN(C(=O)Cc2cc3cc[nH]c3cc2F)C1 ?
A. 1.01

###

Target: HRas^G12V (Homo sapiens (Human), UniProt P01112, G12V)
Assay: 19F T2-CPMG NMR score
Assay type: binding
Protocol: All NMR experiments were collected using 3 mm NMR tubes on a 600 MHz Bruker Avance III spectrometer equipped with a QCI helium cryoprobe and a SampleJet sample changer. The buffer used for NMR experiments was 25 mM sodium phosphate pH 7.4, 150 mM NaCl, 5 mM MgCl2, 1 mM TCEP-d16, 10% D2O. Data were processed using Bruker TopSpin. […]
Items are presented alongside their recorded 19F T2-CPMG Score.
Number, no unit, nothing else.

Q. What value of measured 19F T2-CPMG Score is listed for CC(O)C1CN(C(=O)Cc2c[nH]c3cc(F)ccc23)C1 (centres unmarked) ?
A. 20.77

Q. What value of measured 19F T2-CPMG Score is listed for CCOC(=O)C[C@H]1CN(C(=O)Cc2c[nH]c3cc(F)ccc23)CCO1 ?
A. 7.14

Q. What value of measured 19F T2-CPMG Score is listed for O=C(O)C1CN(C(=O)Cc2c[nH]c3cc(F)ccc23)C1 ?
A. 2.55

Q. What value of measured 19F T2-CPMG Score is listed for O=C(Cc1c[nH]c2cc(F)ccc12)N1CCC(O)CC1 ?
A. 32.13

Q. What value of measured 19F T2-CPMG Score is listed for O=C(Cc1c[nH]c2cc(F)ccc12)Nc1ncccn1 ?
A. 11.04

Q. What value of measured 19F T2-CPMG Score is listed for CC(=O)Nc1cccc(C(=O)N2CCC(c3c[nH]c4cc(F)ccc34)C2)c1 (centres unmarked) ?
A. 16.39

Q. What value of measured 19F T2-CPMG Score is listed for CCOC(=O)[C@@H]1CCCCN1C(=O)Cc1c[nH]c2cc(F)ccc12 ?
A. 13.7

Q. What value of measured 19F T2-CPMG Score is listed for COC(=O)[C@@H]1CN(C)CCN1C(=O)Cc1c[nH]c2cc(F)ccc12 ?
A. 5.07

Q. What value of measured 19F T2-CPMG Score is listed for O=C(Cc1c[nH]c2cc(F)ccc12)Nc1ccc2[nH]ccc2c1 ?
A. 37.91

# credit: patent US20240408064A1
